property label: melting point

{"smiles entry": "NS(=O)(=O)c1cccc(NC(=O)Nc2ccc(NC(=O)Nc3cccc(S(N)(=O)=O)c3)cc2)c1", "melting point": "> 300 °C"}
{"smiles entry": "Cc1cc(-c2ccc(NC(=O)Nc3cccc(S(N)(=O)=O)c3)c(C)c2)ccc1NC(=O)Nc1cccc(S(N)(=O)=O)c1", "melting point": "> 300 °C"}

Return melting point (reported value) for this compound: NS(=O)(=O)c1ccc(NC(=O)Nc2ccc(Cc3ccc(NC(=O)Nc4ccc(S(N)(=O)=O)cc4)cc3)cc2)cc1
293 to 294 °C

Return melting point (reported value) for this compound: Cc1ccc(NC(=O)NCCc2ccc(S(N)(=O)=O)cc2)cc1NC(=O)NCCc1ccc(S(N)(=O)=O)cc1
245 to 247 °C

Return melting point (reported value) for this compound: Cc1ccc(NC(=O)Nc2ccc(S(N)(=O)=O)cc2)cc1NC(=O)Nc1ccc(S(N)(=O)=O)cc1
279 to 281 °C
